Source: patent US10508118B2

# assayedTarget: EML4-ALK-BaF3 (Homo sapiens, UniProt Q9UM73)
# Construct: expressed in transfected cells; host or cells: Ba/F3 cells; the other entry of the earlier key: EML4 (Q9HC35, Echinoderm microtubule-associated protein-like 4)
# Sequence (Q9UM73 1058-1620 limits assumed): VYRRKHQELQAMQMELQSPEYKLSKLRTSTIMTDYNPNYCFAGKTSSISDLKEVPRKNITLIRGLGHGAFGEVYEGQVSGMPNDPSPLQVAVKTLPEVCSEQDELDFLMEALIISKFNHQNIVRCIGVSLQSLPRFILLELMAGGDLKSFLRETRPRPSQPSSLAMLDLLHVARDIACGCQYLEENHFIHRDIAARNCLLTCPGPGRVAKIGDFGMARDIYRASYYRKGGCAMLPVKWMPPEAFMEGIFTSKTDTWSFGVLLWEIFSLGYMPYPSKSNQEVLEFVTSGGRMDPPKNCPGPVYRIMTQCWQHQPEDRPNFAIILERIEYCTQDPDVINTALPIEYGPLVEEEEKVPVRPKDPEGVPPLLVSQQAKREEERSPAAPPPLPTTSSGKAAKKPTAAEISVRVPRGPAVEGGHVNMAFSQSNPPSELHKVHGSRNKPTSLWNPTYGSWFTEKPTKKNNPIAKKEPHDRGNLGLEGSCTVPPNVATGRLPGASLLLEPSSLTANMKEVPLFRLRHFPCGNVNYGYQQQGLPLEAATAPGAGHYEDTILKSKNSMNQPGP
# methodNotes: Growth inhibition of EML4-ALK transformed BaF3 cells (MTS)
# Assay type: cell-based
# measurementConditions: EML4-ALK-BaF3 cells, 48 hours, MTS; Table 12
Below is a list of entries, each paired with its recorded IC50 value.

{"structure": "COc1cc(N2CCN(C)CC2)ccc1Nc1nc(NCc2ccccc2S(=O)(=O)C(C)C)c2c(ccn2C)n1", "unitsSymbol": "nM", "IC50": 1300}
{"structure": "COc1cc(C2CCN(C)CC2)c(C)cc1Nc1nc(Nc2ccccc2S(=O)(=O)C(C)C)c2c(ccn2C)n1", "unitsSymbol": "nM", "IC50": 2240}
{"structure": "COc1cc(N2CCC(N3CCN(C)CC3)CC2)ccc1Nc1nc(NCc2ccccc2S(=O)(=O)C(C)C)c2c(ccn2C)n1", "unitsSymbol": "nM", "IC50": 627}
